Target: Proteasome subunit beta type-8 (Mus musculus, UniProt P28063)
Sequence (P28063 whole entry): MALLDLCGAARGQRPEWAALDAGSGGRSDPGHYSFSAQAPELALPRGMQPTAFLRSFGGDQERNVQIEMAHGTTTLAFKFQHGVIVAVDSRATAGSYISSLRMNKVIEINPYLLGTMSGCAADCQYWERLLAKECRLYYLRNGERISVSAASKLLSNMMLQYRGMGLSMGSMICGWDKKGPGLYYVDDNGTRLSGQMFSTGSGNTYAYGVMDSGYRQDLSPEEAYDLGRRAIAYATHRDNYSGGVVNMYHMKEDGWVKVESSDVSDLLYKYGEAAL
Assay: Inhibition of chymotrypsin like activity of mouse spleen 20S proteasome beta5i subunit using Suc-Leu-Leu-Val-Tyr-AMC as substrate preincubated for 15 mins followed by substrate addition measured after 2 hrs by fluorescence-based assay
measurement kind: pIC50
Interpret pIC50 as the negative base-10 log of the concentration measured in mol/L.

Record CC(C)C[C@H](NC(=O)[C@H](Cc1ccccc1)NC(=O)c1cnccn1)B(O)O [BORTEZOMIB] , field pIC50: 7.77

Memo: `CC[C@H](C)[C@H](NC(=O)[C@H](CCCCN=[N+]=[N-])NC(=O)OCc1ccccc1)C(=O)N[C@@H](Cc1ccccc1)B1O[C@@H]2C[C@@H]3C[C@@H](C3(C)C)[C@]2(C)O1` , reported pIC50: 7.86

Consider `C=CCOc1ccc(CCC(=O)c2ccc(C(=O)N[C@@H](Cc3ccc(OCC=C)cc3)C(=O)N[C@@H](Cc3ccccc3)B3O[C@@H]4C[C@@H]5C[C@@H](C5(C)C)[C@]4(C)O3)[nH]2)cc1` . Its measured pIC50 is 6.95

Consider `C=CCOc1ccc(CCC(=O)c2ccc(C(=O)N[C@@H](Cc3ccc(OCC=C)cc3)C(=O)N[C@@H](CC(C)C)B3O[C@@H]4C[C@@H]5C[C@@H](C5(C)C)[C@]4(C)O3)[nH]2)cc1` . Its measured pIC50 is 6.32

The molecule listed as `CC[C@H](C)[C@H](NC(=O)[C@H](CCCCN=[N+]=[N-])NC(=O)OCc1ccccc1)C(=O)N[C@@H](CC(C)C)B1O[C@@H]2C[C@@H]3C[C@@H](C3(C)C)[C@]2(C)O1` has a reported pIC50 of 6.93

###

experiment: Cytotoxicity against human IMR90 cells harboring wild type p53 assessed as reduction in cell viability after 48 hrs by 7AAD-staining based FACS analysis; type: toxicity, IMR-90; conditions: IMR90 cells harboring wild type p53, read-out: LD50
measurement kind: CC50 at 48 h (nM)
Numeric only. Scale: nM

Summary for this molecule, `CC[C@H](C)[C@H](NC(=O)[C@H](CCCCN=[N+]=[N-])NC(=O)OCc1ccccc1)C(=O)N[C@@H](Cc1ccccc1)B1O[C@@H]2C[C@@H]3C[C@@H](C3(C)C)[C@]2(C)O1` : CC50 at 48 h is 8

Summary for this molecule, `C=CCOc1ccc(CCC(=O)c2ccc(C(=O)N[C@@H](Cc3ccc(OCC=C)cc3)C(=O)N[C@@H](CC(C)C)B3O[C@@H]4C[C@@H]5C[C@@H](C5(C)C)[C@]4(C)O3)[nH]2)cc1` : CC50 at 48 h is 150

Just so you know, measured CC50 at 48 h for `CC(C)C[C@H](NC(=O)[C@H](Cc1ccccc1)NC(=O)c1cnccn1)B(O)O` came out at 130

For `CC[C@H](C)[C@H](NC(=O)[C@H](CCCCN=[N+]=[N-])NC(=O)OCc1ccccc1)C(=O)N[C@@H](CC(C)C)B1O[C@@H]2C[C@@H]3C[C@@H](C3(C)C)[C@]2(C)O1` the molecule record lists CC50 at 48 h as 200

Given item `CC(C)C[C@H](NC(=O)[C@H](CCc1ccccc1)NC(=O)CN1CCOCC1)C(=O)N[C@@H](Cc1ccccc1)C(=O)N[C@@H](CC(C)C)C(=O)[C@@]1(C)CO1` , the value recorded as its CC50 at 48 h is 130

###

Assign log10 CC50 at 48 h to each entry below.
test: Cytotoxicity against human MCF10A cells harboring wild type p53 assessed as reduction in cell viability after 48 hrs by 7AAD-staining based FACS analysis; assay type: toxicity, MCF-10A; conditions: MCF10A cells harboring wild type p53, read-out: LD50
Quick note: numbers are log10 of CC50 at 48 h, with nM as the unit.

// sample `C=CCOc1ccc(CCC(=O)c2ccc(C(=O)N[C@@H](Cc3ccc(OCC=C)cc3)C(=O)N[C@@H](CC(C)C)B3O[C@@H]4C[C@@H]5C[C@@H](C5(C)C)[C@]4(C)O3)[nH]2)cc1` , its log10 CC50 at 48 h was 3.95

Reported log10 CC50 at 48 h of `CC[C@H](C)[C@H](NC(=O)[C@H](CCCCN=[N+]=[N-])NC(=O)OCc1ccccc1)C(=O)N[C@@H](CC(C)C)B1O[C@@H]2C[C@@H]3C[C@@H](C3(C)C)[C@]2(C)O1` : 3.70

Form field log10 CC50 at 48 h, entry `CC[C@H](C)[C@H](NC(=O)[C@H](CCCCN=[N+]=[N-])NC(=O)OCc1ccccc1)C(=O)N[C@@H](Cc1ccccc1)B1O[C@@H]2C[C@@H]3C[C@@H](C3(C)C)[C@]2(C)O1` : 3.10

Form field log10 CC50 at 48 h, entry `CC(C)C[C@H](NC(=O)[C@H](Cc1ccccc1)NC(=O)c1cnccn1)B(O)O` : 3.18

Record `CC(C)C[C@H](NC(=O)[C@H](CCc1ccccc1)NC(=O)CN1CCOCC1)C(=O)N[C@@H](Cc1ccccc1)C(=O)N[C@@H](CC(C)C)C(=O)[C@@]1(C)CO1` . Reported log10 CC50 at 48 h: 2.51

###

assay: Cytotoxicity against human LCL cells harboring wild type p53 assessed as reduction in cell viability after 48 hrs by 7AAD-staining based FACS analysis; assay type: toxicity; conditions: LCL cells harboring wild type p53, read-out: LD50
measurement kind: CC50 at 48 h (nM)
Give your result in nM as a bare value.

`C=CCOc1ccc(CCC(=O)c2ccc(C(=O)N[C@@H](Cc3ccc(OCC=C)cc3)C(=O)N[C@@H](CC(C)C)B3O[C@@H]4C[C@@H]5C[C@@H](C5(C)C)[C@]4(C)O3)[nH]2)cc1` has a reported CC50 at 48 h of 90

For reference, reported CC50 at 48 h for `CC[C@H](C)[C@H](NC(=O)[C@H](CCCCN=[N+]=[N-])NC(=O)OCc1ccccc1)C(=O)N[C@@H](CC(C)C)B1O[C@@H]2C[C@@H]3C[C@@H](C3(C)C)[C@]2(C)O1` stands at 30

Entry under test: `CC(C)C[C@H](NC(=O)[C@H](Cc1ccccc1)NC(=O)c1cnccn1)B(O)O` . Its CC50 at 48 h was 20

Entry `CC(C)C[C@H](NC(=O)[C@H](CCc1ccccc1)NC(=O)CN1CCOCC1)C(=O)N[C@@H](Cc1ccccc1)C(=O)N[C@@H](CC(C)C)C(=O)[C@@]1(C)CO1` — recorded CC50 at 48 h = 30

###

What CC50 was measured for each of the following?
test: Cytotoxicity against human RD-ES cells harboring p53 mutant assessed as reduction in cell viability after 48 hrs by 7AAD-staining based FACS analysis; assay type: functional; settings: read-out: LD50 (the source's name)
Give the number; nM is assumed, so skip it.

Per the record, `CC[C@H](C)[C@H](NC(=O)[C@H](CCCCN=[N+]=[N-])NC(=O)OCc1ccccc1)C(=O)N[C@@H](Cc1ccccc1)B1O[C@@H]2C[C@@H]3C[C@@H](C3(C)C)[C@]2(C)O1` has CC50 of 33

So for `C=CCOc1ccc(CCC(=O)c2ccc(C(=O)N[C@@H](Cc3ccc(OCC=C)cc3)C(=O)N[C@@H](CC(C)C)B3O[C@@H]4C[C@@H]5C[C@@H](C5(C)C)[C@]4(C)O3)[nH]2)cc1` , the logged CC50 turned out to be 65

Looking up `CC[C@H](C)[C@H](NC(=O)[C@H](CCCCN=[N+]=[N-])NC(=O)OCc1ccccc1)C(=O)N[C@@H](CC(C)C)B1O[C@@H]2C[C@@H]3C[C@@H](C3(C)C)[C@]2(C)O1` , I see its CC50 listed as 35

Reported CC50 for `CC(C)C[C@H](NC(=O)[C@H](Cc1ccccc1)NC(=O)c1cnccn1)B(O)O` was 40

For record `CC(C)C[C@H](NC(=O)[C@H](CCc1ccccc1)NC(=O)CN1CCOCC1)C(=O)N[C@@H](Cc1ccccc1)C(=O)N[C@@H](CC(C)C)C(=O)[C@@]1(C)CO1` the listed CC50 is 43

###

assay: Terminal half life in human plasma at 20 mg/m2 iv, administered for 2 to 10 mins after dexamethasone addition by LC-MS/MS analysis; type: ADME, cell-free; conditions: read-out: beta t1/2
measurement kind: half-life

// field: half-life; key: `CC(C)C[C@H](NC(=O)[C@H](CCc1ccccc1)NC(=O)CN1CCOCC1)C(=O)N[C@@H](Cc1ccccc1)C(=O)N[C@@H](CC(C)C)C(=O)[C@@]1(C)CO1` ; value = 5 to 20 min
